# tested-system: Ectonucleotide pyrophosphatase/phosphodiesterase family member 1 (Homo sapiens, UniProt P22413)
# Sequence (P22413 whole entry): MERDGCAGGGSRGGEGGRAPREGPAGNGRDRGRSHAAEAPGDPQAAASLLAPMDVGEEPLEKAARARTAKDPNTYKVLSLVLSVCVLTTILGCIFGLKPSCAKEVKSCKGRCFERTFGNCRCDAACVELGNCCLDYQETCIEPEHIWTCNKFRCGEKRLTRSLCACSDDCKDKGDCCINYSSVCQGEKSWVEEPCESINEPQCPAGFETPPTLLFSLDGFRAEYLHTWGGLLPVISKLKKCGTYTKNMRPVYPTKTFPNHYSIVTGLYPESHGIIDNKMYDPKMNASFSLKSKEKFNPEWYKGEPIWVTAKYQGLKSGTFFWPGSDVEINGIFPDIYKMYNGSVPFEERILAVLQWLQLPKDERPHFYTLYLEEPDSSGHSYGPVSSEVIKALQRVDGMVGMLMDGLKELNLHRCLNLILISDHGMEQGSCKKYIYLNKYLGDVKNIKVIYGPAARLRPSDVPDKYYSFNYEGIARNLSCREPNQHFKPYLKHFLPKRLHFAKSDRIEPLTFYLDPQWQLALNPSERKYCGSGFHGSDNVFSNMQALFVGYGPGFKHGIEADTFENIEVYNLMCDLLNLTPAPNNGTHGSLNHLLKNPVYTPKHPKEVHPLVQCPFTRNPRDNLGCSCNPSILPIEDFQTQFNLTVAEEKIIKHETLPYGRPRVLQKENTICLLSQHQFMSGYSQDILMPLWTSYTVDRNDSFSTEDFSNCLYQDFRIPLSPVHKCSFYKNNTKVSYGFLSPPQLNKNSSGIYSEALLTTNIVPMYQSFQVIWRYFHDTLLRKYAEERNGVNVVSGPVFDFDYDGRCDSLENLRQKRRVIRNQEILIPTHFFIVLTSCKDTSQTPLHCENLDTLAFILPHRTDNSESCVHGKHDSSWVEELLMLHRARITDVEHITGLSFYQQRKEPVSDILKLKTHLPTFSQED
reported-metric: IC50 (µM)

INSERT INTO measurements (smiles_input, reported_metric, quantitative_readout) VALUES
  ('O=C(Nc1ccc(OS(=O)(=O)c2ccccc2)cc1)C1CCCCC1', 'IC50', 11.8),
  ('Cc1ccc(S(=O)(=O)Oc2ccc(NC(=O)C3CCCCCC3)cc2)cc1', 'IC50', 0.422),
  ('O=C(Nc1ccc(OS(=O)(=O)c2ccc(F)cc2)cc1)c1ccc(Cl)cc1', 'IC50', 2.9),
  ('O=C(Nc1ccc(OS(=O)(=O)c2ccc(F)cc2)cc1)C1CCCCC1', 'IC50', 0.564),
  ('O=C(Nc1ccc(OS(=O)(=O)c2ccc(F)cc2)cc1)C1CCCC1', 'IC50', 5.76),
  ('CC(C)c1cc(C(C)C)c(S(=O)(=O)Oc2ccc(NC(=O)c3ccc4ccccc4c3)cc2)c(C(C)C)c1', 'IC50', 3.43),
  ('O=C(Nc1ccc(OS(=O)(=O)c2ccc(F)cc2)cc1)c1ccc2ccccc2c1', 'IC50', 1.49),
  ('Cc1ccc(S(=O)(=O)Oc2ccc(NC(=O)c3ccc(Cl)cc3)cc2)cc1', 'IC50', 1.44),
  ('O=C(Nc1ccc(OS(=O)(=O)c2ccc(C(F)(F)F)cc2)cc1)C1CCCCC1', 'IC50', 0.387),
  ('O=C(Nc1ccc(OS(=O)(=O)c2ccccc2)cc1)c1ccc2ccccc2c1', 'IC50', 9.3),
  ('O=C(Nc1ccc(OS(=O)(=O)c2ccccc2)cc1)C1CCCC1', 'IC50', 46.7),
  ('O=C(Nc1ccc(OS(=O)(=O)c2ccccc2)cc1)c1ccc(Cl)cc1', 'IC50', 9.61);
